Procedure details: Cytotoxicity in HEL299 cells, MTS assay
Format: cell-based, Human
Experimental parameters: human, HEL299 cells, cell growth reduced by 50%
Parameter CC50 at 3 days: see the listing below.

compound="O=c1n([C@H]2C[C@H](O)[C@@H](CO)O2)ccc2nc3cc(O)ccc3n12 [Compound 2a]" value_reported="> 100 µM"
compound="CCC(CC)COC(=O)[C@H](C)N[P@](=O)(OC[C@H]1O[C@@](C#N)(c2ccc3c(N)ncnn23)[C@H](O)[C@@H]1O)Oc1ccccc1 [Remdesivir, reference compound]" value_reported="> 10 µM"
compound="CCCCCCCCOc1ccc2c(c1)nc1cc[nH]c(=O)n12 [Compound 6c]" value_reported="> 100 µM"
compound="COc1ccc(C(OC[C@H]2O[C@@H](n3ccc4nc5cc(O)ccc5n4c3=O)[C@H](O)[C@@H]2O)(c2ccccc2)c2ccc(OC)cc2)cc1 [Compound 3b]" value_reported="> 20 µM"
compound="CCCCCCCCCCCCOc1ccc2c(c1)nc1cc[nH]c(=O)n12 [Compound 6e]" value_reported="> 100 µM"
compound="COc1ccc(C(OC[C@H]2O[C@@H](n3ccc4nc5cc(O)ccc5n4c3=O)C[C@@H]2O)(c2ccccc2)c2ccc(OC)cc2)cc1 [Compound 3a]" value_reported="> 100 µM"

API: the following record is the query input.
The compound identified as O=c1n([C@@H]2O[C@H](CO)[C@@H](O)[C@H]2O)ccc2nc3cc(O)ccc3n12 [Compound 2b] registered its CC50 at 3 days at > 100 µM
